Kindly state bioavailability for each of the entries shown.
Measurement description: Oral bioavailability in rat
Assay type: ADME, organism-based
Applied conditions: in vivo
Your answer should be a plain number; it is taken to be in %.

In: Can you look up the measured bioavailability of COc1nc(Nc2ncc3c4ccncc4n([C@H]4CC[C@H](C)CC4)c3n2)ccc1N1CCC2(CCC(=O)N2)CC1 for me?
Out: 65

In: Can you look up the measured bioavailability of C[C@H]1CC[C@H](n2c3cnccc3c3cnc(Nc4ccc(N5CCN(C(=O)CO)CC5)nn4)nc32)CC1 for me?
Out: 22

In: Can you look up the measured bioavailability of CS(=O)(=O)CC1CCN(c2ccc(Nc3ncc4c5ccncc5n([C@H]5CC[C@H](C)CC5)c4n3)nn2)CC1 for me?
Out: 23

In: Can you look up the measured bioavailability of C[C@H]1CC[C@H](n2c3cnccc3c3cnc(Nc4ccc(N5CCC6(CCC(=O)N6)CC5)cn4)nc32)CC1 for me?
Out: 48

In: Can you look up the measured bioavailability of C[C@H]1CC[C@H](n2c3cnccc3c3cnc(Nc4ccc(N5CCC6(CC5)CCS(=O)(=O)C6)nn4)nc32)CC1 for me?
Out: 38

In: Can you look up the measured bioavailability of C[C@H]1CC[C@H](n2c3cnccc3c3cnc(Nc4ccc(N5CCNCC5)nn4)nc32)CC1 for me?
Out: 11

In: Can you look up the measured bioavailability of c1cc2c3cnc(Nc4ccc(N5CCNCC5)cn4)nc3n(C3CCCC3)c2cn1 for me?
Out: 9.4

In: Can you look up the measured bioavailability of CN(C)C1CCN(c2ccc(Nc3ncc4c5ccncc5n([C@H]5CC[C@H](C)CC5)c4n3)nn2)CC1 for me?
Out: 28

In: Can you look up the measured bioavailability of CN(C)C1CCN(c2ccc(Nc3ncc4c5ccncc5n([C@H]5CC[C@H](C)CC5)c4n3)nc2F)CC1 for me?
Out: 88

In: Can you look up the measured bioavailability of C[C@H]1CC[C@H](n2c3cnccc3c3cnc(Nc4ccc5c(n4)CCN(C(=O)CO)C5)nc32)CC1 for me?
Out: 75

In: Can you look up the measured bioavailability of C[C@@H](O)CN(C)C1CCN(c2ccc(Nc3ncc4c5ccncc5n([C@H]5CC[C@H](C)CC5)c4n3)nn2)CC1 for me?
Out: 46

In: Can you look up the measured bioavailability of CN(C)C1CCN(c2ccc(Nc3ncc4c5ccncc5n([C@H]5CC[C@H](C)CC5)c4n3)nc2)CC1 for me?
Out: 44

In: Can you look up the measured bioavailability of COc1nc(Nc2ncc3c4ccncc4n([C@H]4CC[C@H](C)CC4)c3n2)ccc1N1CCC(N(C)C)CC1 for me?
Out: 62

###

Measurement description: Clearance in iv dosed cynomolgus monkey
Type: ADME, organism-based, Macaca fascicularis
Applied conditions: in vivo
Property measured: clearance
Please answer using a numeric value trailed by its unit.

In: Can you look up the measured clearance of C[C@H]1CC[C@H](n2c3cnccc3c3cnc(Nc4ccc5c(n4)CCN(C(=O)CO)C5)nc32)CC1 for me?
Out: 23.7 mL/min/kg

###

Test system: COLO 205
Measurement description: Antiproliferative activity against Rb-positive human COLO205 cells assessed as incorporation of [14C]thymidine into DNA after 72 hrs by beta-plate counting analysis
Property measured: IC50 (nM)
Your answer should be a plain number; it is taken to be in nM.

In: Can you look up the measured IC50 of CC(=O)c1c(C)c2cnc(Nc3ccc(N4CCNCC4)cn3)nc2n(C2CCCC2)c1=O [PALBOCICLIB] for me?
Out: 36

In: Can you look up the measured IC50 of CN(C)C1CCN(c2ccc(Nc3ncc4c5ccncc5n([C@H]5CC[C@H](C)CC5)c4n3)nc2F)CC1 for me?
Out: 16

In: Can you look up the measured IC50 of C[C@H]1CC[C@H](n2c3cnccc3c3cnc(Nc4ccc(N5CCC6(CC5)CCS(=O)(=O)C6)nn4)nc32)CC1 for me?
Out: 38

In: Can you look up the measured IC50 of CN(C)C1CCN(c2ccc(Nc3ncc4c5ccncc5n([C@H]5CC[C@H](C)CC5)c4n3)nn2)CC1 for me?
Out: 11

In: Can you look up the measured IC50 of c1cc2c3cnc(Nc4ccc(N5CCNCC5)cn4)nc3n(C3CCCC3)c2nn1 for me?
Out: 51

In: Can you look up the measured IC50 of CC1CCC(n2c3cnccc3c3cnc(Nc4ccc(N5CCNCC5)cn4)nc32)CC1 (mixture of isomers) for me?
Out: 55

In: Can you look up the measured IC50 of CC1(C)CCCC(n2c3cnccc3c3cnc(Nc4ccc(N5CCNCC5)cn4)nc32)C1 (stereo not drawn) for me?
Out: 33

In: Can you look up the measured IC50 of Cc1nccc2c3cnc(Nc4ccc(N5CCNCC5)cn4)nc3n(C3CCCC3)c12 for me?
Out: 280

In: Can you look up the measured IC50 of O[C@H]1CC[C@H](n2c3cnccc3c3cnc(Nc4ccc(N5CCNCC5)cn4)nc32)CC1 for me?
Out: 66

In: Can you look up the measured IC50 of N#Cc1nccc2c3cnc(Nc4ccc(N5CCNCC5)cn4)nc3n(C3CCCC3)c12 for me?
Out: 350

In: Can you look up the measured IC50 of c1cc2c3cnc(Nc4ccc(N5CCNCC5)cn4)nc3n(C3CCCC3)c2cn1 for me?
Out: 25

In: Can you look up the measured IC50 of C[C@@H](O)CN(C)C1CCN(c2ccc(Nc3ncc4c5ccncc5n([C@H]5CC[C@H](C)CC5)c4n3)nn2)CC1 for me?
Out: 9

In: Can you look up the measured IC50 of Fc1nccc2c3cnc(Nc4ccc(N5CCNCC5)cn4)nc3n(C3CCCC3)c12 for me?
Out: 52

In: Can you look up the measured IC50 of C[C@H]1CC[C@H](n2c3cnccc3c3cnc(Nc4ccc(N5CCNCC5)nc4)nc32)CC1 for me?
Out: 7

In: Can you look up the measured IC50 of Clc1nccc2c3cnc(Nc4ccc(N5CCNCC5)cn4)nc3n(C3CCCC3)c12 for me?
Out: 63

In: Can you look up the measured IC50 of C[C@H]1CC[C@H](n2c3cnccc3c3cnc(Nc4ccc(N5CCNCC5)nn4)nc32)CC1 for me?
Out: 22

In: Can you look up the measured IC50 of C[C@H]1CC[C@H](n2c3cnccc3c3cnc(Nc4ccc(N5CCC(N)CC5)cn4)nc32)CC1 for me?
Out: 5
